Entries and their measured EC50 follow.
Target or test system: T1, 表达于CHOK1细胞表面的人TIGIT (CHOK1/人TIGIT细胞, 吉满生物 GM-C01116) (human, UniProt Q495A1 22-244)
T1 construct: whole, on cells; Purchased cell line; also called CHOK1/hTIGIT
T1 sequence (looked up): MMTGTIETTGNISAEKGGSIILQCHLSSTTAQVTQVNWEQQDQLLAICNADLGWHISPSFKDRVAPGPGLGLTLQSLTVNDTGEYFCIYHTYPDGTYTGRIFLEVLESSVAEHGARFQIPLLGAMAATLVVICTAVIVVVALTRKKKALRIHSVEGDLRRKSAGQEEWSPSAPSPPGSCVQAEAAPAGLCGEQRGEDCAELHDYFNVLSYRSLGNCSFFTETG
Method description: flow cytometry on CHOK1/hTIGIT cells, EC50 of MFI

Examples with answers:
Binder	Readout label	Observed measurement
人源化抗TIGIT抗体A1 (antibody, human IgG1, kappa, V domains shown, Humanized) VH: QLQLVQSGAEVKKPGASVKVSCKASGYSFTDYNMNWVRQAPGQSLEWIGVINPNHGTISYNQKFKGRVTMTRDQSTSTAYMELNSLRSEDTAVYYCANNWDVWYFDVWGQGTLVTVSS VL: DIQMTQSPSSLSASVGDRVTITCRPSENIYSYLAWYQQKPGKAPKLLIYNAKALAEGVPSRFSGSGSGTDFTLTISSLQPEDFATYYCQHHFGAPWTFGQGTKVEIKR	EC50	0.36 µg/mL
人源化抗TIGIT抗体A4 (antibody, human IgG1, kappa, V domains shown, Humanized) VH: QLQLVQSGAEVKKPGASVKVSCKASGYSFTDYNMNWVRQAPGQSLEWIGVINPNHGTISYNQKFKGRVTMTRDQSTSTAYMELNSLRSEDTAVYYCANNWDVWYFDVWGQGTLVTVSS VL: DIQMTQSPSSLSASVGDRVTITCRPSENIYSYLAWYQQKPGNSPKLLVYNAKALAEGVPSRFSGSGSGTQFTLTISSLQPEDFATYYCQHHFGAPWTFGGGTKVEIKR	EC50	0.496 µg/mL
阳性对照抗体P1 (antibody, human IgG1, kappa, V domains shown, Positive control anti-TIGIT antibody) VH: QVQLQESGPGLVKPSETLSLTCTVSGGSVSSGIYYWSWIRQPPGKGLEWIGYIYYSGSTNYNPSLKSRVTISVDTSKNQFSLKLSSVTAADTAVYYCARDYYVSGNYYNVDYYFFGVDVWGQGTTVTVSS VL: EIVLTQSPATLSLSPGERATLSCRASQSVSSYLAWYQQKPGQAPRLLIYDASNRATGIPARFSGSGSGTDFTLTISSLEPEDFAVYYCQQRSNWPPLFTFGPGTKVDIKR	EC50	0.264 µg/mL
人源化抗TIGIT抗体A3 (antibody, human IgG1, kappa, V domains shown, Humanized) VH: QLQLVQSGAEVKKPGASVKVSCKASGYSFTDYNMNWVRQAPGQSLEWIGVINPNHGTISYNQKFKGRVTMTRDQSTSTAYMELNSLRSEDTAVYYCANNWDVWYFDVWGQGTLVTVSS VL: DIQMTQSPSSLSASVGDRVTITCRPSENIYSYLAWYQQKPGNAPKLLVYNAKALAEGVPSRFSGSGSGTQFTLTISSLQPEDFATYYCQHHFGAPWTFGQGTKVEIKR	EC50	0.329 µg/mL
人源化抗TIGIT抗体A2 (antibody, human IgG1, kappa, V domains shown, Humanized) VH: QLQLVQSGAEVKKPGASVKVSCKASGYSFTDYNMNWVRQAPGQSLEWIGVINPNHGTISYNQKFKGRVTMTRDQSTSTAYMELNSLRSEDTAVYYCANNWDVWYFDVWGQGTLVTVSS VL: DIQMTQSPSSLSASVGDRVTITCRPSENIYSYLAWYQQKPGKAPKLLVYNAKALAEGVPSRFSGSGSGTDFTLTISSLQPEDFATYYCQHHFGAPWTFGQGTKVEIKR	EC50	0.312 µg/mL

Now turn to the next binder.
Q) I'd like to know its EC50. The binder in question is 嵌合抗TIGIT抗体A0 (antibody, human IgG1, kappa, V domains shown, also called B011-A-142E4C5) VH: ELQLQQSGPELVKPGASVKISCKASGYSFTDYNMNWVKQSNGKSLEWIGVINPNHGTISYNQKFKGKATLTVDQSSSTAYMQLNSLTSEDSAVYYCANNWDVWYFDVWGTGTTVTVSS VL: DIQMTQSPASLSASVGETVTITCRPSENIYSYLAWYRQKQGNSPQLLVYNAKALAEGVPSRFSGSGSGTQFSLKINSLQPEDFGSYYCQHHFGAPWTFGGGTKLEIKR
A) ~0.139 µg/mL
